Biological target: human Adenosine A1 Receptor (AdoRA1), ADORA1 (gene 134) (UniProt P30542)
Sequence (P30542 whole entry, looked up): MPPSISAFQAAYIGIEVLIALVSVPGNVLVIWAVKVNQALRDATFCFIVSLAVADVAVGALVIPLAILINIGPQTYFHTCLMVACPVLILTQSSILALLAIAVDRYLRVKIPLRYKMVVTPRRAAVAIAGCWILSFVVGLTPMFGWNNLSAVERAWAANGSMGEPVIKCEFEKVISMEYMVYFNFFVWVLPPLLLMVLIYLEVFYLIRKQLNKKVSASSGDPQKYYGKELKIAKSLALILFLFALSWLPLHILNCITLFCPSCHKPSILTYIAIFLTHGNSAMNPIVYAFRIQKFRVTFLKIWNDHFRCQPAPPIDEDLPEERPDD
Experiment: NVS_GPCR_hAdoRA1: NovaScreen (NVS) G Protein-Coupled Receptor Assay for human Adenosine A1 Receptor (AdoRA1) (AID 2283254)
Records with an inconclusive call do not appear. Active and inactive are the calls of the source. Rule for the calls: active = hit-call score of the fitted dose curve at least 0.9, where 1 is the maximum; inconclusive = response in the unintended direction; inactive = score below 0.9.
Allowed answers: TRUE for active, FALSE for inactive

What outcome does the record of this test show for COc1ccc(C(c2ccc(OC)cc2)C(Cl)(Cl)Cl)cc1 ?
TRUE

Now give it for CCCCC(CC)COC(=O)c1ccccc1C(=O)OCC(CC)CCCC (configuration not stated) too.
FALSE

Now give it for CCNc1nc(Cl)nc(NC(C)C)n1 too.
TRUE

Now give it for CCOC(=O)CC(SP(=S)(OC)OC)C(=O)OCC (configuration not stated) too.
TRUE

Now give it for OC(c1ccc(Cl)cc1)(c1cncnc1)c1ccccc1Cl (configuration not stated) too.
TRUE

Now give it for COC(=O)N(OC)c1ccccc1COc1ccn(-c2ccc(Cl)cc2)n1 too.
TRUE

Now give it for CCCCNC(=O)n1c(NC(=O)OC)nc2ccccc21 too.
FALSE

---

Assay: CEETOX_H295R_CORTISOL: CeeTox H295R High-throughput Steroidogenesis Assay for Cortisol (AID 2283438);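 note: cortisol secreted into medium quantified by LC-MS/MS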
Details: actives raise or lower the signal
The source made the active and inactive calls. How the source made its calls: active means hit-call score of the fitted dose curve at least 0.9, where 1 is the maximum; inactive means score below 0.9.
test-readout: AC50

1) CNC(=S)S = inactive
2) CC1=C(C(=O)Nc2ccccc2)SCCO1 = inactive
3) COP(=S)(OC)Oc1nc(Cl)c(Cl)cc1Cl = inactive
4) C=CCC1=C(C)C(OC(=O)C2C(C=C(C)C)C2(C)C)CC1=O (configuration not stated) = inactive
5) CC(C)Oc1cc(-n2nc(C(C)(C)C)oc2=O)c(Cl)cc1Cl = inactive
6) CCOC(=O)CC(SP(=S)(OC)OC)C(=O)OCC (configuration not stated) = inactive

Could you now look at the following compound, please?
Param item = Cc1c(F)c(F)c(COC(=O)C2C(/C=C(\Cl)C(F)(F)F)C2(C)C)c(F)c1F (configuration not stated) ; retrieve measured AC50.
inactive

---

Read-out: Thyroid Hormone Responsive (THRSP), THRSP (gene 7069)
Assay: LTEA_HepaRG_THRSP: Life Technologies and Expression Analysis (LTEA) Assay for Thyroid Hormone Responsive (THRSP) using HepaRG (AID 2283536)
Conditions: mRNA level, 48 h; actives raise or lower the signal
The source made the active and inactive calls. The calls were made as follows: active = hit-call score of the fitted dose curve at least 0.9, where 1 is the maximum; inactive = score below 0.9.
Allowed answers: Yes for active, No for inactive

What outcome does the record of this test show for C#CCOS(=O)OC1CCCCC1Oc1ccc(C(C)(C)C)cc1 (stereo not drawn) ?
No

Now give it for OC(c1ccc(Cl)cc1)(c1cncnc1)c1ccccc1Cl (stereo not drawn) too.
Yes

Now give it for CCOP(=S)(OCC)SCn1c(=O)oc2cc(Cl)ccc21 too.
No

Now give it for CCOC(=O)CC(SP(=S)(OC)OC)C(=O)OCC (stereo not drawn) too.
No

Now give it for COC(=O)c1ccccc1C(=O)OC too.
No

Now give it for CC(C)C1(C)N=C(c2nc3ccccc3cc2C(=O)O)NC1=O (stereo not drawn) too.
No

Now give it for O=C(O)COc1nc(Cl)c(Cl)cc1Cl too.
No

Now give it for CC(Oc1ccc(Cl)cc1Cl)C(=O)O (stereo not drawn) too.
No

Now give it for CN(C)C(=S)SSC(=S)N(C)C too.
No

Now give it for CS/C(C)=N/OC(=O)N(C)SN(C)C(=O)O/N=C(\C)SC too.
No

Now give it for O=C(O)c1nc(Cl)ccc1Cl too.
No

Now give it for CCCN(CCC)c1c([N+](=O)[O-])cc(S(N)(=O)=O)cc1[N+](=O)[O-] too.
No

Now give it for CNC(=O)ON=CC(C)(C)SC too.
No
